# Lookup of reported inhibition keyed by entry
target: Fibroblast growth factor receptor 3 (Homo sapiens); conditions: at 0.1 µM;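 also: each value is a mean percent inhibition of FGFR3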
Give just the number in %; leave the unit off.

Example results:
* NC(=O)c1ccc(Oc2nccc(-c3c(-c4ccc(F)cc4)ncn3C3CCNCC3)n2)cc1 | 11
* O=C(Nc1ccc(Oc2ccc3[nH]c(NC(=O)c4ccccc4)nc3c2)cc1)Nc1cc(C(F)(F)F)ccc1F | 7.91
* COc1ccc2cc(-c3c(-c4ccncc4)nc(-c4ccc([S+](C)[O-])cc4C)n3C)ccc2c1 (configuration not stated) | 1.3
* COc1ccc(C2=C(N3CCc4ccccc43)C(=O)NC2=O)cc1 | 8.71
* C/C(Nc1ccc(S(N)(=O)=O)cc1)=C1/C(=O)Nc2ccccc21 | 0.94

Task: Would you kindly share the measured inhibition for CCc1ccc(Oc2nccc(-c3c(-c4ccc(F)cc4)ncn3C3CCNCC3)n2)cc1 ?
Output: 7.97

Task: Can you share its inhibition? I mean this compound: CN(C)CCOc1ccc(-c2cc(-c3ccc4c(c3)CCC4=NO)c(-c3ccncc3)o2)cc1
Output: -1.69

Task: For the compound Cc1ccc(NC(=O)c2ccoc2)cc1-c1ccc(C(=O)NCC2CC2)cc1 , what inhibition is on record?
Output: 2.69

Task: Entry under review: NS(=O)(=O)c1ccc(N/N=C2\C(=O)Nc3ccc(C(=O)NCCCn4ccnc4)cc32)cc1 . Reported inhibition?
Output: 4.75

Task: Item Fc1ccc(-c2ncn(C3CCNCC3)c2-c2ccnc(Oc3ccc4c(c3)OCO4)n2)cc1 has what recorded inhibition?
Output: 6.95

Task: Can you share its inhibition? I mean this compound: COc1cc2ncn(-c3cc(OCc4ccccc4C(F)(F)F)c(C(C)=O)s3)c2cc1OC
Output: 2.58

Task: Any idea what inhibition was measured for O=C1Nc2ccccc2/C1=C/Nc1ccc(-n2cncn2)cc1 ?
Output: 7.96

Task: inhibition for N#Cc1ccc(Oc2nccc(-c3c(-c4ccc(F)cc4)ncn3C3CCNCC3)n2)cc1 ?
Output: 3.14

Task: Which inhibition value is on record for Fc1ccc(-c2ncn(C3CCNCC3)c2-c2ccnc(Oc3ccc(F)c(F)c3)n2)cc1 ?
Output: 0.74

Task: What value of inhibition has been reported for the following compound? NC(=O)c1cc(-c2ccncc2)cc(-c2ccccc2)c1N
Output: 7.6

Task: If you can, please state the reported inhibition value of CS(=O)(=O)CCNCc1ccc(-c2ccc3ncnc(Nc4ccc(OCc5ccccc5)c(Br)c4)c3c2)o1 .
Output: 0.3

Task: Query (compound): Fc1ccc(-c2nc3n(c2-c2ccncc2)CCS3)cc1 ; field requested: inhibition
Output: 2.38
